System: WT Max(13-93) synthetic (M65Nle)
Procedure summary: PBM 8-mer E-score (E-score (rank enrichment, -0.5 to 0.5)); higher = stronger preferential binding
The full ranking holds about 33,000 sequences; the median of “E-score (rank enrichment, -0.5 to 0.5)” is about -0.0075, and the highest 2% start at about 0.23. Only a selection was taken, and the highest values are over-represented in it overall.
So basically: PBM 8-mer E-score at 0.06 or higher? That is TRUE. Lower than 0.06? That is FALSE.

[Q] Say whether `AATGATAA` shows PBM 8-mer E-score of 0.06 or more.
[A] TRUE

[Q] State whether the measured PBM 8-mer E-score reaches 0.06, counting equality as reaching it, for `GCCCGCCC`
[A] TRUE

[Q] API: above_or_equal(metric=PBM 8-mer E-score, cutoff=0.06) for item `TCGGGAGA`
[A] FALSE

[Q] Please tell me: is the sequence `CCGCCCGG` at or over 0.06 in terms of PBM 8-mer E-score?
[A] FALSE

[Q] Hello, I need to know if `CATGATGA` has measured PBM 8-mer E-score not below 0.06. Thanks!
[A] TRUE

[Q] Assess whether reported PBM 8-mer E-score for `AGGTGACT` sits at 0.06 or higher.
[A] FALSE

[Q] Hi team, for `AAGTGACT` , is the recorded PBM 8-mer E-score at or above 0.06?
[A] FALSE

[Q] Check this sequence for PBM 8-mer E-score at or above 0.06: `CCGCCCCC`
[A] FALSE

[Q] Decide: PBM 8-mer E-score of `TATGATAA` >= 0.06?
[A] TRUE

[Q] Determine whether this sequence has PBM 8-mer E-score no lower than 0.06: `CATGATAA`
[A] TRUE

[Q] Tell me whether PBM 8-mer E-score is at least 0.06 here: `CATGATGG`
[A] FALSE

[Q] Has `CCCCCGCC` a recorded PBM 8-mer E-score greater than or equal to 0.06?
[A] FALSE

[Q] Does the reported PBM 8-mer E-score for `AAGTTAAG` fall at or above the 0.06 mark?
[A] FALSE

[Q] Decide: PBM 8-mer E-score of `ACGTGACT` >= 0.06?
[A] TRUE

[Q] // inclusive: PBM 8-mer E-score at least 0.06? input: `AATGATAT`
[A] TRUE

[Q] Determine whether this sequence has PBM 8-mer E-score no lower than 0.06: `AAGTTAAC`
[A] TRUE

[Q] Could you please find out whether `AAGTTAAT` has PBM 8-mer E-score that meets 0.06 or exceeds it?
[A] TRUE

[Q] Reported PBM 8-mer E-score at or above 0.06? `ATACGATC`
[A] FALSE

[Q] Answer whether PBM 8-mer E-score of `AATGATAC` is greater than or equal to 0.06.
[A] TRUE

[Q] Does `AGCTCAAA` have a reported PBM 8-mer E-score of at least 0.06?
[A] FALSE

[Q] Is PBM 8-mer E-score at least 0.06? Consider `ACCCGCCC`
[A] FALSE

[Q] Please tell me: is the sequence `CCCCGCCC` at or over 0.06 in terms of PBM 8-mer E-score?
[A] TRUE

----------
System: WT Max(13-93) synthetic (M65Nle)
Procedure summary: PBM 8-mer E-score (E-score (rank enrichment, -0.5 to 0.5)); higher = stronger preferential binding
Over roughly 33,000 sequences, “E-score (rank enrichment, -0.5 to 0.5)” has its median near -0.0075; the highest 2% begin near 0.23. This is one part of a sample in which the highest values are shown more often than they occur.
Entry class follows PBM 8-mer E-score: small value = under -0.006, mid value = from -0.006 up to 0.1, large value = 0.1 and over

[Q] Exam item: assign `ACAAGTGA` to the correct category.
[A] mid value

[Q] Which class is correct for the following sequence? `AACCACAG`
[A] small value

[Q] Please report the category associated with `ATAGAGTC` , nothing else.
[A] small value

[Q] For this sequence, which bin applies? `GATCAAGA`
[A] mid value

[Q] Determine which band this sequence sits in: `ATTTCGCG`
[A] large value

[Q] Quick check: band for `AACCACAC`
[A] large value

[Q] Each sequence maps to one class by PBM 8-mer E-score. Which class for `GTCATCAA` ?
[A] mid value

[Q] Looking at `CACATTCA` , which class would you pick?
[A] large value

[Q] Hello team, could you let me know which band the following sequence falls into: `GATGCACA`
[A] mid value

[Q] Please report the category associated with `CATGCACA` , nothing else.
[A] large value

[Q] Note: place this sequence into its band. Item: `ATGCCCGC`
[A] mid value

[Q] Which of the defined bands does the recorded PBM 8-mer E-score of `AATGCACT` sit within?
[A] large value

[Q] Which class is correct for the following sequence? `CGTGCACA`
[A] large value

[Q] Tag the class for `AAAGTTAG`
[A] large value

[Q] Kindly identify the class of `CCAACCGC` .
[A] small value

[Q] Would you mind sorting `AAGTCCGC` into the appropriate category?
[A] small value

[Q] Where would `TGTGCACA` land among the classes by reported PBM 8-mer E-score?
[A] large value

[Q] Bin this entry: `AATGCACG`
[A] large value

[Q] For the record `ACCTAATG` , report the class its PBM 8-mer E-score corresponds to.
[A] mid value

[Q] Category of `AGTTCCTA` :
[A] small value

[Q] Category lookup for the sequence `CGGGTTGC`
[A] small value

[Q] Assign a category based on measured PBM 8-mer E-score for `CACCATTA` and give only the class name.
[A] small value

----------
Tested on: WT Max(13-93) synthetic (M65Nle)
Procedure summary: PBM 8-mer E-score (E-score (rank enrichment, -0.5 to 0.5)); higher = stronger preferential binding
Whole data set: some 33,000 sequences, median “E-score (rank enrichment, -0.5 to 0.5)” near -0.0075, cut for the highest 2% near 0.23. This is one part of a sample in which the highest values are shown more often than they occur.
Hi there, I'd appreciate the recorded PBM 8-mer E-score for every entry that follows.
No unit in the answer, please; the number alone is enough.

[Q] What measured PBM 8-mer E-score is associated with `TCTACAAA` on WT Max(13-93) synthetic (M65Nle)?
[A] 0.0553

[Q] GET /values?readout=PBM 8-mer E-score&system=WT Max(13-93) synthetic (M65Nle)&item= `GTATCATA`
[A] 0.248

[Q] Fill in the recorded PBM 8-mer E-score for this sequence, with WT Max(13-93) synthetic (M65Nle) as test system: `CTGTCATA`
[A] 0.113

[Q] Form field: PBM 8-mer E-score recorded for `CGAGCGAG` with WT Max(13-93) synthetic (M65Nle) (enter value)
[A] 0.0998

[Q] Give the reported PBM 8-mer E-score for `AAAGTACG` (system: WT Max(13-93) synthetic (M65Nle)).
[A] 0.0681

[Q] Value wanted: PBM 8-mer E-score (WT Max(13-93) synthetic (M65Nle)) of entry `GAGCATAA`
[A] 0.0772

[Q] Request: PBM 8-mer E-score, test system WT Max(13-93) synthetic (M65Nle), entry `CTATCATA`
[A] 0.162

[Q] Query for WT Max(13-93) synthetic (M65Nle): what PBM 8-mer E-score does the record show for `ACTTGGCA` ?
[A] 0.0244

[Q] // lookup PBM 8-mer E-score | system=WT Max(13-93) synthetic (M65Nle) | key= `ACGAAGTG`
[A] 0.00194

[Q] For the record `AATTGGCA` , what value of PBM 8-mer E-score is listed for WT Max(13-93) synthetic (M65Nle)?
[A] 0.139

[Q] Short answer please: PBM 8-mer E-score, WT Max(13-93) synthetic (M65Nle), entry `ATGCACGC`
[A] 0.26

[Q] # value lookup — system WT Max(13-93) synthetic (M65Nle), readout PBM 8-mer E-score, item `ATGTCATA`
[A] 0.168

[Q] WT Max(13-93) synthetic (M65Nle) / PBM 8-mer E-score / `CACGCGGA` : value?
[A] 0.351

[Q] API: value(readout=PBM 8-mer E-score, system=WT Max(13-93) synthetic (M65Nle)) for record `AGCAAGCC`
[A] -0.152

[Q] So what PBM 8-mer E-score did `CACGTGGG` get with WT Max(13-93) synthetic (M65Nle)?
[A] 0.486

[Q] // map `ATGGTAAG` to recorded PBM 8-mer E-score (system: WT Max(13-93) synthetic (M65Nle))
[A] 0.12

[Q] Form entry - test system: WT Max(13-93) synthetic (M65Nle); read-out: PBM 8-mer E-score; sequence: `CGTGATTC`
[A] 0.117

[Q] Form field - read-out: PBM 8-mer E-score; system: WT Max(13-93) synthetic (M65Nle); submitted item: `CCAACCGG`
[A] -0.267

[Q] // fetch WT Max(13-93) synthetic (M65Nle) PBM 8-mer E-score for `CAGGGTAC`
[A] -0.008

[Q] Find PBM 8-mer E-score (WT Max(13-93) synthetic (M65Nle)) for the entry `TATTGGCA`
[A] 0.243

[Q] Which measured PBM 8-mer E-score belongs to `CAACTCGG` , tested on WT Max(13-93) synthetic (M65Nle)?
[A] -0.13

[Q] Query PBM 8-mer E-score on WT Max(13-93) synthetic (M65Nle) for `GATGTCAA`
[A] 0.0342

[Q] Recall the recorded PBM 8-mer E-score for `CCAGGCGG` with WT Max(13-93) synthetic (M65Nle) and state it.
[A] -0.0313

[Q] API: value(readout= PBM 8-mer E-score, system= WT Max(13-93) synthetic (M65Nle), query= `ATGGTAAC` )
[A] 0.159

[Q] Request body: readout PBM 8-mer E-score, system WT Max(13-93) synthetic (M65Nle), query `CCGAATCG` . Return the value.
[A] -0.0138

[Q] Identify the measured PBM 8-mer E-score of `ACGTGCTA` for WT Max(13-93) synthetic (M65Nle).
[A] 0.311

[Q] Any idea what PBM 8-mer E-score came out for `CGAGAACC` on WT Max(13-93) synthetic (M65Nle)?
[A] -0.00648

[Q] Under WT Max(13-93) synthetic (M65Nle): PBM 8-mer E-score value of `CCGACCAG` ?
[A] -0.175

[Q] Checklist item: PBM 8-mer E-score tested on WT Max(13-93) synthetic (M65Nle), entry `CAAGTGGG` , value?
[A] 0.0824

[Q] Give PBM 8-mer E-score (WT Max(13-93) synthetic (M65Nle)) of the following sequence: `CACGCGGG`
[A] 0.224

[Q] Give WT Max(13-93) synthetic (M65Nle) PBM 8-mer E-score for `GTGAGGGA`
[A] -0.116

[Q] # value lookup — system WT Max(13-93) synthetic (M65Nle), readout PBM 8-mer E-score, item `ACGTGCTG`
[A] 0.212

[Q] Please provide the recorded PBM 8-mer E-score for `CATTGGCA` , tested on WT Max(13-93) synthetic (M65Nle).
[A] -0.0219

[Q] Identify the measured PBM 8-mer E-score of `AGAAGCAT` for WT Max(13-93) synthetic (M65Nle).
[A] 0.135

[Q] Hello, I am looking for reported PBM 8-mer E-score with WT Max(13-93) synthetic (M65Nle) for `ACGTTCGA` . Could you help?
[A] -0.101

[Q] Can you look up PBM 8-mer E-score on WT Max(13-93) synthetic (M65Nle) for `CCGTGCTC` ?
[A] -0.0456

[Q] Record `AACGCGGC` : what is its PBM 8-mer E-score with WT Max(13-93) synthetic (M65Nle)?
[A] -0.0617

[Q] Any idea what PBM 8-mer E-score came out for `GACGCGGC` on WT Max(13-93) synthetic (M65Nle)?
[A] -0.164

[Q] Which PBM 8-mer E-score is reported with WT Max(13-93) synthetic (M65Nle) for this entry: `CGTGTCAA` ?
[A] 0.0498

[Q] # value lookup — system WT Max(13-93) synthetic (M65Nle), readout PBM 8-mer E-score, item `CTATCTCC`
[A] -0.00138

[Q] Give WT Max(13-93) synthetic (M65Nle) PBM 8-mer E-score for `CACGTGGC`
[A] 0.486

[Q] Notebook: pull reported PBM 8-mer E-score for WT Max(13-93) synthetic (M65Nle), entry `GCGTGCTA`
[A] 0.197

[Q] Find the measured PBM 8-mer E-score: item `CACGTGGA` , target or system WT Max(13-93) synthetic (M65Nle).
[A] 0.486

[Q] Request - read-out PBM 8-mer E-score | tested on WT Max(13-93) synthetic (M65Nle) | sequence `ATGCACAA`
[A] 0.14

[Q] Please tell me: PBM 8-mer E-score of `GAGTGGTA` , system WT Max(13-93) synthetic (M65Nle)?
[A] -0.108

[Q] Test system WT Max(13-93) synthetic (M65Nle); read-out PBM 8-mer E-score; what value for `AGTGTCAA` ?
[A] 0.122

From: the supplement of paper PMC12636033
